- test.summary: self-splicing fitness, log relative to wild type (ln ratio); higher = more splicing; Tetrahymena group I intron in knt gene, E. coli kanamycin selection, DiMSum; sequences stand for … in CUCUCU…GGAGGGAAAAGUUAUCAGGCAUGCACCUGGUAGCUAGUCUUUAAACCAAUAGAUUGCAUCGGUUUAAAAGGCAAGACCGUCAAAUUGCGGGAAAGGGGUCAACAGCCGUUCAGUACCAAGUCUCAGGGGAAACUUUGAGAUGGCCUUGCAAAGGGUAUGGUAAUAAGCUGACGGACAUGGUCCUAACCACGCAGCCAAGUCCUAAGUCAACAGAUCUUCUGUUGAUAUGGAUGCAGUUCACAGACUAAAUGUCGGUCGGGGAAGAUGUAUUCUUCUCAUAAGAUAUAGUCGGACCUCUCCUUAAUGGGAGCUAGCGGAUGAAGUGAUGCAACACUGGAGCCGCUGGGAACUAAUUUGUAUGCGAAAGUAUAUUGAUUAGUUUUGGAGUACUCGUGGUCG;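 further: selection with 25 µg/mL kanamycin versus none on LB agar overnight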
- test.parameters: 30 °C
Please go through the items and note down their self-splicing fitness (ln).
Reply with the value as a number alone.

Request: Give me measured self-splicing fitness (ln), please, for this sequence: UGUGAGCAAUAUUACGGCAU
Response: -3.25

Request: Give me measured self-splicing fitness (ln), please, for this sequence: UGUCAGCAAUAUUACGCUGG
Response: -4.05

Request: Give me measured self-splicing fitness (ln), please, for this sequence: GUUUAGCAAUAUUACGUUCU
Response: -1.41

Request: Give me measured self-splicing fitness (ln), please, for this sequence: AGGCAGCAAUAUUACGCGAG
Response: -2.49

Request: Give me measured self-splicing fitness (ln), please, for this sequence: AAUAAGCAAUAUUACGUGAA
Response: -2.46

Request: Give me measured self-splicing fitness (ln), please, for this sequence: UUCGAGCAAUAUUACGUGGG
Response: -2.45

Request: Give me measured self-splicing fitness (ln), please, for this sequence: UAUCAGCAAUAUUACGUAUC
Response: -2.11

Request: Give me measured self-splicing fitness (ln), please, for this sequence: AGUUAGCAAUAUUACGGGCC
Response: -2.24
